# Tested on: HNSC
# Experimental protocol: growth inhibition (% activity, log2 RLU normalised to DMSO / staurosporine); higher = more growth inhibition
# Assay setup: 33 µM
Give yes when the value for growth inhibition is at least 4%. Give no when it is less.

Below, 3 compounds whose answers are already recorded.
O=c1n(CCCN2CCN(c3cccc(Cl)c3)CC2)nc2ccccn12
yes
C[C@@H](O[C@H]1OCCN(Cc2n[nH]c(=O)[nH]2)[C@H]1c1ccc(F)cc1)c1cc(C(F)(F)F)cc(C(F)(F)F)c1
yes
C=C1c2cccc(O)c2C(O)=C2C(=O)[C@]3(O)C(O)=C(C(N)=O)C(=O)[C@@H](N(C)C)[C@@H]3[C@@H](O)[C@H]12
no

Now consider a different compound.
Request: Is the recorded value of growth inhibition equal to or greater than 4% for this compound? CN(C)CCOc1ccc(/C(=C(/CCCl)c2ccccc2)c2ccccc2)cc1
Response: no

###

# System: DIPGX9 (diffuse intrinsic pontine glioma line)
# Experimental protocol: growth inhibition (% activity, log2 RLU normalised to DMSO / staurosporine); higher = more growth inhibition
# Assay setup: 33 µM
Readout name: growth inhibition (%)
Supply the numeric figure in %, leaving out any unit text.

CC(C)(O/N=C(\C(=O)N[C@@H]1C(=O)N2C(C(=O)[O-])=C(C[n+]3ccccc3)CS[C@H]12)c1csc(N)n1)C(=O)O
0.416
CC(CN(C)C)CN1c2ccccc2CCc2ccccc21 (stereo not given)
-0.216
CC(C)(C(=O)O)c1ccc(C(O)CCCN2CCC(C(O)(c3ccccc3)c3ccccc3)CC2)cc1 (stereo not given)
0.223
C[C@H](N)[C@H](O)c1cccc(O)c1
1.54

# context switch: different compound, same growth inhibition
Request: I would be grateful if you could share the reported growth inhibition for Cc1cccc(C)c1NC(=O)C1CCCCN1C (stereo not given) .
Response: 0.0719

###

The entries below are paired with their reported growth inhibition.
# Test system: DIPGX9
# Experimental protocol: growth inhibition (% activity, log2 RLU normalised to DMSO / staurosporine); higher = more growth inhibition
# Assay setup: 33 µM
Supply the numeric figure in %, leaving out any unit text.

Would you please look over these solved cases?
CN(C)c1ccc(O)c2c1C[C@H]1C[C@H]3[C@H](N(C)C)C(=O)C(C(N)=O)=C(O)[C@@]3(O)C(=O)C1=C2O
-1.39
Cc1c(C(=O)NN2CCCCC2)nn(-c2ccc(Cl)cc2Cl)c1-c1ccc(Cl)cc1
-0.743
CN(CCOc1ccc(NS(C)(=O)=O)cc1)CCc1ccc(NS(C)(=O)=O)cc1
-2.46

Request: Lab request: please report growth inhibition under test system DIPGX9 for Cc1cc(-n2c(=O)[nH]c(=O)n(C)c2=O)ccc1Oc1ccc(SC(F)(F)F)cc1
Response: 1.95

Request: And for O=c1[nH]cc(F)c(=O)[nH]1 ?
Response: 10.5

Request: And for O=c1ccc2ccccc2o1 ?
Response: 2.02

Request: And for NCCc1c[nH]cn1 ?
Response: 0.0733

Request: And for COCCc1ccc(OCC(O)CNC(C)C)cc1 (stereo unspecified) ?
Response: 2.73

Request: And for CC(=O)Oc1ccccc1C(=O)Nc1ncc([N+](=O)[O-])s1 ?
Response: 1.52

Request: And for Cc1cn([C@@H]2C[C@@H](O)[C@H](CO)O2)c(=O)[nH]c1=O ?
Response: -2.07

Request: And for CCCCOc1cc(C(=O)OCCN(CC)CC)ccc1N ?
Response: 0.918
